target: human 5-HT6 receptor (Homo sapiens); construct: expressed in transfected cells; host or cells: HEK-293 cells under G-418 selection; membranes were prepared from them; test: 5-HT6 binding assay ([3H]-LSD, SPA, membranes of transfected HEK293 cells); details: 3 nM [3H] LSD; 5-HT: over all average against two different membrane preparations; read-out: Ki value, inhibition of [3H] LSD binding (reference compounds, rank order of potency)
Sequence (P50406 whole entry): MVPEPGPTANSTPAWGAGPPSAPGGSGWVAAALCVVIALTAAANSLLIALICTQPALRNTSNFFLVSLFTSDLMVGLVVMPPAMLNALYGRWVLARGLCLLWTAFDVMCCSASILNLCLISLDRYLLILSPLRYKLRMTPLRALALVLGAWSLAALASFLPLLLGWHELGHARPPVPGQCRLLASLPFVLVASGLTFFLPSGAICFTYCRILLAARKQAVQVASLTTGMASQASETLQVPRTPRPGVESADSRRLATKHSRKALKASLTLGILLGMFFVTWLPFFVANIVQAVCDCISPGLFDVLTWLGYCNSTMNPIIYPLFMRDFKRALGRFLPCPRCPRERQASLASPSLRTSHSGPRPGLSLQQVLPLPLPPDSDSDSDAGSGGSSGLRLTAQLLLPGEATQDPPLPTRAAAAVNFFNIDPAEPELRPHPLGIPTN
measured_parameter: Ki (nM)
Output spec: scalar in nM, unitless text.

Ask: Query the reported Ki for human 5-HT6 receptor (Homo sapiens); item: CN1C[C@@H](NS(=O)(=O)N(C)C)C[C@@H]2c3cccc4c3c(cn4C)C[C@H]21 [mesulergide, reference compound]
Reply: 1970
